Target: T1, hu-CD74 antigen (R&D SYSTEMS catalog #3590-CD-050) (human, UniProt P04233-2 73-232, limits assumed)
T1 construct: Bought antigen; also called rhCD74; human CD74
T1 sequence (looked up): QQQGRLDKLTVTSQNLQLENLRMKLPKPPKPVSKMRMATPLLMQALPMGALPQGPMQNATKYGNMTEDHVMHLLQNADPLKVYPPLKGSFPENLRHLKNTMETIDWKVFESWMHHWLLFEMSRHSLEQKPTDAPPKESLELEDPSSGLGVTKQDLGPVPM
Assay: SPR (Biacore T200), IgG captured on anti-human Fc, rhCD74 analyte
readout: pKd
Just the number, please; pKd means minus log10 of the concentration in mol/L.

HC 1251_A06 (g)/LC 1337_A07 (g) (antibody, human IgG1, kappa, V domains shown, IgG format) VH: QVQLVESGGGVVQPGRSLRLSCAASGFDFSSYGMHWVRQAPGKGLEWVAVIWDDGSDRYYADSVKGRFTISRDNSKNTLYLQMNSLRAEDTAVYYCARGGTRVLGAIHGTDVWGQGTTVTVSS VL: DIQMTQSPSSVSASVGDRVTITCRASQGISSWVAWYQQKPGKAPKLLIYGASRLQSGVPSRFSGSGSGTDFTLTISSLQPEDFATYYCQQYHTYPLTFGGGTKVEIKR    9.77

Form field: reported pKd of HC 1251_B08 (wt)/LC 1275_C10 (wt) (antibody, human IgG1, kappa, V domains shown, IgG format) VH: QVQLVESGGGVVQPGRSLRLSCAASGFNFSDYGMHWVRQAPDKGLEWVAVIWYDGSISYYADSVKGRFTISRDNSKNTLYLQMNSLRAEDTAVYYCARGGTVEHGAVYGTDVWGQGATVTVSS VL: DIQMTQSPSSLSASVGDRVTITCRASQGVSSWLAWYQQKPEKAPKSLIYSARYLQSGVPSRFSGSGSGTDFTLTISSLQPEDFATYYCQQYNLYPLTFGGGTKVEIKR
9.72
